# target-under-test: HLA-DRB1*0101 (Homo sapiens, UniProt P01903+P01911, A100R/D57E/F55L/F60I/F76Y/I96L/L162R/M171V/P40L/Q125E/R42F/V115G/Y59C)
# Construct: purchased
# protocol-text: biochemical
# Type: binding
# condition-description: binding inhibition assay; NB = non-binder (no dose-dependent inhibition); read-out: DRB1*0101 IC50
Where no end group is shown, it is not given here.
Would you mind telling me the reported IC50 of each entry?
Write it as a number; the unit nM goes unstated.

Exercise: // lookup IC50 for TCLINNSSYIATTALSHPIE-NH2 [AMA1_007]
Key: 54

Exercise: Looking for the measured IC50 of Ac-EYFQTYKKNKPLTQ-NH2 [RH5_013] , can you help?
Key: 13500

Exercise: If you can, please state the reported IC50 value of Ac-DGLKYLFIPSHNSFIKKY-NH2 [RH5_004] .
Key: 4

Exercise: I have this substance here, Ac-DELLKRILDMSNEYSLFITSD-NH2 [RH5_011] , and I need its recorded IC50.
Key: 73
